Biological target: SAE (Homo sapiens, UniProt Q9UBT2)
Construct: endogenous in cells; host or cells: HCT116
Sequence (Q9UBT2 whole entry): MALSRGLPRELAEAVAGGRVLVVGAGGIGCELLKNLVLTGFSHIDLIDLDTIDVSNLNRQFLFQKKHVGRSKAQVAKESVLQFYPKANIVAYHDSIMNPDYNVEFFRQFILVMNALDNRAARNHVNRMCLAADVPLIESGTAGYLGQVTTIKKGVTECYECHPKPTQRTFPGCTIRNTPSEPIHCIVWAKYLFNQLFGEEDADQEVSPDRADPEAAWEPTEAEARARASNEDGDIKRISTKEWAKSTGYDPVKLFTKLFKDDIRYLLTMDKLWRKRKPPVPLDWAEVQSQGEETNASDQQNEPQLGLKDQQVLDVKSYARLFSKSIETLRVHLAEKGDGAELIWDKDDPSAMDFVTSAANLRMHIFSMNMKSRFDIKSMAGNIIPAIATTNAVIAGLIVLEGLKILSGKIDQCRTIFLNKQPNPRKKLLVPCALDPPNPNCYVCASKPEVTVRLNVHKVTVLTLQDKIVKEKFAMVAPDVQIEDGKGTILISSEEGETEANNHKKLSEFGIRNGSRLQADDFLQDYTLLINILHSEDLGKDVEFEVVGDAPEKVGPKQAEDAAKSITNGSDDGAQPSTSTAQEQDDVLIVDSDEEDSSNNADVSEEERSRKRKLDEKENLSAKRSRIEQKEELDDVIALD
Sequence (Q9UBE0 whole entry, further chain): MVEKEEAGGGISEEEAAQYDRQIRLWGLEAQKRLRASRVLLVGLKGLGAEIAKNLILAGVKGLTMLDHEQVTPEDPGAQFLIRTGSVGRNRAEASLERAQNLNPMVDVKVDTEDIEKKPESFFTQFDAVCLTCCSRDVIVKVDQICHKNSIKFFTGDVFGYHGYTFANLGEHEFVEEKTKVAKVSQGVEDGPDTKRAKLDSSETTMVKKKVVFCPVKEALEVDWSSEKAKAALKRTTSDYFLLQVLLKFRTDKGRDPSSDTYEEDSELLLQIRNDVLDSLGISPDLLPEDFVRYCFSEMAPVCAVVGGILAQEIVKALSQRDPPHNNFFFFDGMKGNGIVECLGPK
Test: SUMO IF: in vitro inhibitory activity assay against SAE in HCT116 cells (SUMO-2/3 immunofluorescence)
Assay type: cell-based
Details: class symbols, 6 h at 37° C.
pIC50: −log10 of the molar value.
# pIC50 listing for each entry below
PARAMETER: pIC50

- Cc1sc(C(=O)c2cncnc2N[C@H]2C[C@H](O)[C@@H](CCS(N)(=O)=O)[C@@H]2F)cc1[C@H]1NCCc2ccc(Cl)cc21 [Compound 992]: < 6.70
- NS(=O)(=O)OC[C@H]1[C@H](F)[C@@H](Nc2ncncc2C(=O)c2cc3c(s2)CC=C[C@]32NCCc3ccc(Cl)cc32)C[C@@H]1O [Compound 681]: ≥ 7.30
- NS(=O)(=O)OC[C@H]1[C@H](F)[C@@H](Nc2ncncc2C(=O)c2cc([C@@H]3NCCc4ccc(Cl)cc43)c(C3CC3)s2)C[C@@H]1O [Compound 985]: 6.70 to 7.30
- CC(C)N1Cc2sc(C(=O)c3cncnc3N[C@H]3C[C@H](O)[C@@H](COS(N)(=O)=O)[C@@H]3F)cc2C2(C1)NCCc1ccc(Cl)cc12 (stereo partly drawn) [Compound 648]: ≥ 7.30
- NS(=O)(=O)OC[C@H]1[C@H](F)[C@@H](Nc2ncncc2C(=O)c2cc3c(s2)CC[C@]32OCCc3ccccc32)C[C@@H]1O [Compound 746]: 6.70 to 7.30
- CC(C)N1Cc2sc(C(=O)c3cncnc3N[C@H]3C[C@H](O)[C@@H](COS(N)(=O)=O)[C@@H]3F)cc2[C@@]2(C1)OCCc1ccc(F)cc12 [Compound 733]: < 6.70
- Cc1cc2c(cc1Cl)C1(CCCc3sc(C(=O)c4cncnc4N[C@H]4C[C@H](O)[C@@H](COS(N)(=O)=O)[C@@H]4F)cc31)NCC2 (stereo partly drawn) [Compound 113]: 6.70 to 7.30
- CC1(C)Cc2ccc(Cl)cc2[C@]2(CCCc3sc(C(=O)c4cncnc4N[C@H]4C[C@H](O)[C@@H](COS(N)(=O)=O)[C@@H]4F)cc32)N1 [Compound 1030]: < 6.70
- NS(=O)(=O)OC[C@H]1[C@H](F)[C@@H](Nc2ncncc2C(=O)c2cc3c(s2)C(F)=CC32NCCc3ccc(F)cc32)C[C@@H]1O (stereo partly drawn) [Compound 618]: 6.70 to 7.30
- NS(=O)(=O)OC[C@H]1[C@H](F)[C@@H](Nc2ncncc2C(=O)c2cc3c(s2)COC[C@]32NCCc3cc(Cl)c(Cl)cc32)C[C@@H]1O [Compound 563]: 6.70 to 7.30
- CN1CCc2ccc(Cl)cc2C12CCCc1sc(C(=O)c3cncnc3N[C@H]3C[C@H](O)[C@@H](COS(N)(=O)=O)[C@@H]3F)cc12 (stereo partly drawn) [Compound 594]: 6.70 to 7.30
- CC1(C)CNC2(C=Cc3sc(C(=O)c4cncnc4N[C@H]4C[C@H](O)[C@@H](COS(N)(=O)=O)[C@@H]4F)cc32)c2cc(Cl)ccc21 (stereo partly drawn) [Compound 1059]: 6.70 to 7.30
